- Tested on: NCI-H23
- experimental protocol: relative viability (nuclei count vs DMSO), 5 days (fraction); higher = more cells survive
- applied conditions: first compound 0.000632 µM
Would you kindly list relative viability for each of these compounds?
Numbers only.

# count of solved cases: 3
compound	test value
CC(=O)O[C@@]12CO[C@@H]1C[C@H](O)[C@@]1(C)C(=O)[C@H](O)C3=C(C)[C@@H](OC(=O)[C@H](O)[C@@H](NC(=O)OC(C)(C)C)c4ccccc4)C[C@@](O)([C@@H](OC(=O)c4ccccc4)[C@H]21)C3(C)C [Docetaxel] + Nc1ncn([C@H]2C[C@H](O)[C@@H](CO)O2)c(=O)n1 [Decitabine] (partner 2 µM)	0.303
CC(=O)O[C@@]12CO[C@@H]1C[C@H](O)[C@@]1(C)C(=O)[C@H](O)C3=C(C)[C@@H](OC(=O)[C@H](O)[C@@H](NC(=O)OC(C)(C)C)c4ccccc4)C[C@@](O)([C@@H](OC(=O)c4ccccc4)[C@H]21)C3(C)C [Docetaxel] + N=C(N)NC(=N)NCCc1ccccc1 [Phenformin] (partner 250 µM)	0.702
CC(=O)O[C@@]12CO[C@@H]1C[C@H](O)[C@@]1(C)C(=O)[C@H](O)C3=C(C)[C@@H](OC(=O)[C@H](O)[C@@H](NC(=O)OC(C)(C)C)c4ccccc4)C[C@@](O)([C@@H](OC(=O)c4ccccc4)[C@H]21)C3(C)C [Docetaxel] + CS(=O)(=O)N1CCN(Cc2cc3nc(-c4cccc5[nH]ncc45)nc(N4CCOCC4)c3s2)CC1 [Pictilisib] (partner 1 µM)	0.403

Alright, here's another compound for you.
Exam item: State the recorded relative viability for this entry: CC(=O)O[C@@]12CO[C@@H]1C[C@H](O)[C@@]1(C)C(=O)[C@H](O)C3=C(C)[C@@H](OC(=O)[C@H](O)[C@@H](NC(=O)OC(C)(C)C)c4ccccc4)C[C@@](O)([C@@H](OC(=O)c4ccccc4)[C@H]21)C3(C)C [Docetaxel] + C[C@]1(O)C[C@@H](c2nc(-c3ccc4ccc(-c5ccccc5)nc4c3)c3c(N)nccn32)C1 [Linsitinib] (partner 1 µM)
Marked response: 0.572
